// Relative activity of GmSAMT1 with substrate lookup, one value per entry
# Target Desc: GmSAMT1 (Glycine max, UniProt B5A7G5)
# Sequence (B5A7G5 1-370): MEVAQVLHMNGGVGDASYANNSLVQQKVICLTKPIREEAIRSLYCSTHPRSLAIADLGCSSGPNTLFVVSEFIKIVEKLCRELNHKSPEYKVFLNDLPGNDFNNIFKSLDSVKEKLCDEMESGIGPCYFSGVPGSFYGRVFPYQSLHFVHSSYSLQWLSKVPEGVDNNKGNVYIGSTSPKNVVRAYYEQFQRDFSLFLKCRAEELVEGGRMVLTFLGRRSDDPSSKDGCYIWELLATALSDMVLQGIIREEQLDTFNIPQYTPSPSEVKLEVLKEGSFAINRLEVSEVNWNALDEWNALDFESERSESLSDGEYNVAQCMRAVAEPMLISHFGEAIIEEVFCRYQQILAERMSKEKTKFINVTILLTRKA
# Assay: Radiochemical SAMT activity assay, substrate specificity of recombinant GmSAMT1
# Assay type: biochemical, soybean
# Study Conditions: all substrates at 1 mM; activity with salicylic acid set at 100%; average of three measurements
Recorded Endpoint: Relative activity of GmSAMT1 with substrate (%)

* O=C(O)c1cccnc1 | 0
* C=C1C[C@]23C[C@@]1(O)CC[C@H]2[C@@]12C=C[C@H](O)[C@@](C)(C(=O)O1)[C@H]2[C@@H]3C(=O)O | 0
* O=C(O)c1ccccc1 | 16.9
* O=C(O)/C=C/c1ccc(O)cc1 | 0
* O=C(O)c1ccccc1O | 100
* O=C(O)/C=C/c1ccc(O)c(O)c1 | 0
* Nc1ccccc1C(=O)O | 9.3
* COc1cc(C(=O)O)ccc1O | 0
* O=C(O)C=Cc1ccccc1 | 0

* * *

# Target Desc: GmSAMT1 (Glycine max, UniProt B5A7G5)
# Assay: Radiochemical SAMT activity assay, substrate specificity of recombinant GmSAMT1
# Assay type: biochemical, soybean
# Study Conditions: all substrates at 1 mM; activity with salicylic acid set at 100%; average of three measurements
// Relative activity of GmSAMT1 with substrate lookup, one value per entry
Recorded Endpoint: Relative activity of GmSAMT1 with substrate (%)

* O=C(O)COc1ccc(Cl)cc1Cl [2,4-Dichlorophenoxyacetic acid, 2,4-dichlorophenoxyacetic acid] | 0
* CC/C=C\C[C@H]1C(=O)CC[C@@H]1CC(=O)O [Jasmonic acid, jasmonic acid] | 0
* O=C(O)Cc1c[nH]c2ccccc12 [Indole-3-acetic acid, indole-3-acetic acid] | 0
* O=C(O)c1cccc(O)c1 [3-Hydroxybenzoic acid, 3-hydroxybenzoic acid] | 1.8
* O=C(O)c1ccc(O)cc1 [4-Hydroxybenzoic acid, 4-hydroxybenzoic acid] | 0

* * *

# Target Desc: GmSAMT1 (Glycine max, UniProt B5A7G5)
# Assay: Effects of metal ions on activity of GmSAMT1
# Format: biochemical, soybean
# Study Conditions: chloride salts at 5 mM final concentration; control without metal ion set at 1.0
Recorded Endpoint: effect of metal ion on GmSAMT1 activity compared with control

* [Cl-].[Na+] | minimal effect
* [Cl][Fe][Cl] | no activity
* [Cl-].[Cl-].[Zn+2] | no activity
* Cl.N | minimal effect
* [Cl][Mn][Cl] | moderately inhibited
* [Cl-].[Cl-].[Mg+2] | minimal effect
* [Cl][Cu][Cl] | no activity
* [Ca+2].[Cl-].[Cl-] | moderately inhibited
